Entries and their z-score
# testSummary: PSAC antagonists in infected red cells, primary screen, cell-based, P. falciparum Indochina, OD700, 2 h (AID 1155);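 note: lysis reports solute entry through the parasite surface anion channel PSAC; channel blockers reduce lysis of infected cells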
# particulars: P. falciparum Indochina infected erythrocytes, osmotic lysis OD700; higher = more signal, called active from +8 up or from −8 down
Calls of active or inactive are those of the source.
assayReadout: z-score

molecule=COc1ccc([Si](C)(C)[C@@H]2[C@@H](CCn3cc([C@H](O)c4ccccc4)nn3)O[C@]3(C(=O)N(c4ccccc4)c4ccccc43)[C@H]2C)cc1 assayreadout=z-score observed="-1.51 (inactive)"
molecule="C=CCC(OC(C)=O)[C@@H]1[C@@H](N(Cc2ccc(-c3cccc(C(F)(F)F)c3)o2)C(=O)c2cccc3ccccc23)c2cc(OCCCO)ccc2N1C(=O)Cc1ccc(OC)cc1 (stereo partly drawn)" assayreadout=z-score observed="0.753 (inactive)"
molecule=COCCOC(=O)N1C(=O)[C@@]2(c3cc(C#CCCO)ccc31)[C@H](C(=O)N1CCCCCCC1)[C@H]1C(=O)O[C@H](c3ccccc3)[C@H](c3ccccc3)N1[C@@H]2c1ccccc1OCCO assayreadout=z-score observed="0.654 (inactive)"

###

# targetEntity: Calmodulin-1 (Homo sapiens) (UniProt P0DP23)
# testSummary: CALM1 binders on microarrays, EGTA buffer, profiling panel, biochemical, small-molecule microarray, Cy5-labelled CALM1 (AID 1111);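 note: labelled calmodulin applied in Tris saline Tween buffer holding calcium plus EGTA and DTT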
# particulars: Cy5-CALM1 binding fluorescence, higher = more signal
Entries and their composite z-score
assayReadout: composite z-score

compound="C=CCC(OC(C)=O)[C@@H]1[C@@H](N(Cc2ccc(-c3ccccc3)cc2)C(=O)c2ccc(C)cc2)c2cc(OCCCO)ccc2N1C(=O)Cc1ccc2ccccc2c1 (stereo partly drawn)" assayreadout="composite z-score" observed=-0.117
compound=C=C(COC)/C(=C/C[C@@H](OC(=O)c1ccncc1)c1ccccc1OCCO)c1cc(C(=O)OC)ccc1OC assayreadout="composite z-score" observed=-0.188
compound="O=C1NC(=O)C2C1C=CC(C(O)c1ccccn1)N2Nc1ccc(Cl)cc1Cl (stereo not drawn)" assayreadout="composite z-score" observed=1.46
compound="COc1ccc(C(O)C2C=CC3C(=O)N(c4ccccc4)C(=O)C3N2Nc2ccc(C(C)C)cc2)c2ccccc12 (stereo not drawn)" assayreadout="composite z-score" observed=1.17
compound=O=c1cccc(-c2ccc(F)cc2)o1 assayreadout="composite z-score" observed=-0.236
compound=C=CCN1C(=O)[C@]2(O[C@H](CCO)[C@@H]([Si](C)(C)c3ccc(OC)cc3)[C@@H]2C)c2cc(N3C(=O)COc4ccccc43)ccc21 assayreadout="composite z-score" observed=0.966
compound=CN(C)CCCNC(=O)[C@@H]1c2ccccc2C(=O)N(C2CCCCC2)[C@H]1c1ccc(CO)cc1 assayreadout="composite z-score" observed=1.41
compound=O=C1N(CCS(=O)(=O)c2ccccc2)Cc2ccccc2[C@@H]2OC(c3ccc(OCCCO)cc3)=N[C@]12CCS(=O)(=O)c1ccccc1 assayreadout="composite z-score" observed=1.23

###

# Tested on: Noggin (protein binding on small-molecule microarray)
# testSummary: Noggin binders on small-molecule microarray, primary screen, biochemical, 635/667 nm fluorescence (AID 1095);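 note: score merges 667 nm feature fluorescence with signal to noise over triplicate slides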
# particulars: 635 nm fluorescence, higher = more signal
assayReadout: composite z-score

compound=CCOC(=O)C[C@H]1[C@H](OC(=O)c2cc3ccccc3oc2=O)[C@@H](NC(=O)c2ccc3ccccc3c2)c2cc(OCCCO)ccc2N1C(=O)Cc1ccc(OC)cc1 observed=0.405
compound=NC(=O)NCC#Cc1ccc2c(c1)[C@]1(C(=O)N2)[C@H](C(=O)N2CCN(c3ncccn3)CC2)[C@H]2C(=O)O[C@H](c3ccccc3)[C@H](c3ccccc3)N2[C@@H]1c1ccc(OCCO)cc1 observed=0.513
compound="CC(C)C(CO)N1C(=O)[C@@H]2[C@H]3C(=O)OCC=C[C@H]3OC23C=CCN(C(C)(C)C)C(=O)[C@@H]13 (stereo partly drawn)" observed=-0.122

###

# Test system: Human papillomavirus type 1a protein E7 (residues 44-93)
# testSummary: HPV1a E7 fragment binders on microarrays, primary screen, biochemical, small-molecule microarray, residues 44-93, 635 nm fluorescence (AID 1108);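 note: E7 fragment applied at 1 µg/mL in TBST for 1 h at 4 C; score combines spot fluorescence with its signal to noise ratio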
# particulars: small-molecule microarray binding, fluorescence 635 nm; higher = more signal
Entries and their composite z-score
assayReadout: composite z-score

compound=Cc1ccc(S[C@]2(C(=O)NCC(C)C)CC(=O)N(C3Cc4ccccc4C3)[C@@H]2c2ccc(CO)cc2I)cc1 observed=-0.117
compound=C=CCN1C(=O)[C@@]2(O[C@@H](CCO)[C@H]([Si](C)(C)c3ccc(OC)cc3)[C@H]2C)c2cc(N3CCOC3=O)ccc21 observed=1.31
compound="CC(CO)N1C(=O)[C@@H]2[C@H]3C(=O)OCC=C[C@H]3OC23C=CCN(c2ccc(Cl)cc2)C(=O)[C@@H]13 (stereo partly specified)" observed=-0.716
compound=COc1ccc([Si](C)(C)[C@@H]2[C@@H](CC(=O)N3Cc4ccccc4C[C@H]3CO)O[C@]3(C(=O)N(Cc4ccc(N5CCC5=O)cc4)c4ccccc43)[C@H]2C)cc1 observed=1.02
compound=CN(C)C(=O)[C@@]1(Cc2ccccc2N=[N+]=[N-])N=C(c2ccc(OCCCO)cc2)O[C@H]1c1ccccc1 observed=0.0896
compound=COCCOC(=O)N1C(=O)[C@@]2(c3cc(C#CCC(C(=O)OC)C(=O)OC)ccc31)[C@H](c1ccc(O)cc1)N1[C@H](c3ccccc3)[C@H](c3ccccc3)OC(=O)[C@H]1[C@@H]2C(=O)NC[C@H](O)c1ccccc1 observed=1.33

###

Entries and their composite z-score
# testSummary: binders of probe aFSTL3 on microarray, primary screen, stem cell growth factor project, biochemical, small-molecule microarray, fluorescence 635/667 (AID 1064);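 note: measures binding of the biotinylated anti-FSTL3 antibody to printed compounds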
# particulars: higher = more signal
assayReadout: composite z-score

molecule=NC(=O)[C@H]1[C@@H]2C(=O)O[C@@H](c3ccccc3)[C@@H](c3ccccc3)N2[C@@H](c2ccc(O)cc2)[C@]12C(=O)Nc1ccccc12 assayreadout="composite z-score" observed=0.339
molecule=CCOC(=O)C1=C[C@@H](C(C)(C)C)N(S(=O)(=O)c2ccc(C)cc2)[C@H]1c1cccc(Cl)c1 assayreadout="composite z-score" observed=-0.308
molecule=CO[C@H]1O[C@H](CO)[C@@H](OC(=O)Nc2ccc(C#N)cc2)[C@@H]2OC(=O)[C@H](Cc3cccc(Br)c3)C/C=C/C[C@@H](Cc3cccc(Br)c3)C(=O)O[C@@H]12 assayreadout="composite z-score" observed=-0.381
molecule="CC(=O)N1CC(C(O)C2C=CC3C(=O)NC(=O)C3N2Nc2ccc(Cl)cc2Cl)c2ccccc21 (configuration not stated)" assayreadout="composite z-score" observed=0.856
molecule=C=C(COC)/C(=C/C[C@@H](OC(=O)c1ccncc1)c1ccccc1OCCO)c1cc(C(=O)OC)ccc1OC assayreadout="composite z-score" observed=0.232
molecule="CC(C)c1ccc(NN2C(C(O)Cc3ccccc3)C=CC3C(=O)N(c4ccccc4)C(=O)C32)cc1 (configuration not stated)" assayreadout="composite z-score" observed=0.0399
molecule=COC(=O)[C@@]1(Cc2ccc(OC)cc2)[C@H]2c3cc(C(=O)N4CCCC4)n(Cc4cc(C)n(C)n4)c3C[C@H]2CN1C(=O)c1ccccc1 assayreadout="composite z-score" observed=0.404

###

Entries and their z-score
# targetEntity: NADPH oxidase 4 (Homo sapiens)
# testSummary: NOX4-dependent H2O2 signal modulators, primary screen, NOX inhibitor project, cell-based, HEK293-NOX4, tetracycline-induced, Amplex Red fluorescence (AID 1160)
# particulars: 45 min, higher = more signal, called active from +8 up or from −8 down
Calls of active or inactive are those of the source.
assayReadout: z-score

samplesmiles=COc1ccc([Si](C)(C)[C@@H]2[C@@H](CC(=O)N3Cc4ccccc4C[C@H]3CO)O[C@]3(C(=O)N(c4ccccc4)c4ccccc43)[C@H]2C)cc1 targetentity="NADPH oxidase 4 (Homo sapiens)" assayreadout=z-score observed="0.71 (inactive)"
samplesmiles=NC(=O)[C@H]1[C@@H]2C(=O)O[C@@H](c3ccccc3)[C@@H](c3ccccc3)N2[C@@H](c2ccc(O)cc2)[C@]12C(=O)Nc1ccc(C#CC3=CCCCC3)cc12 targetentity="NADPH oxidase 4 (Homo sapiens)" assayreadout=z-score observed="0.425 (inactive)"
samplesmiles=C=C(CCCC)C(=O)CC[C@H](OC(=O)c1ccccc1-c1ccccc1C(=O)O)c1ccccc1OCCO targetentity="NADPH oxidase 4 (Homo sapiens)" assayreadout=z-score observed="0.0107 (inactive)"

###

# targetEntity: Calmodulin-1 (Homo sapiens)
# testSummary: calcium-bound CALM1 binders on microarrays, profiling panel, artefact control for SMM control-protein annotation, biochemical, small-molecule microarray, Cy5-labelled CALM1, plus calcium (AID 1112);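 note: score merges spot fluorescence with signal to noise from triplicate slides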
# particulars: Cy5-CALM1 binding fluorescence, higher = more signal
assayReadout: composite z-score

molecule="COc1cc(NN2C(C(O)c3ccc(I)cc3)C=CC3C(=O)N(c4ccccc4)C(=O)C32)cc(OC)c1OC (stereo unspecified)" observed=0.663
molecule=CCOC(=O)C[C@H]1[C@H](OC(=O)c2ccccc2-c2ccccc2)[C@@H](NC(=O)c2ccccc2)c2cc(OCCCO)ccc2N1C(=O)c1ccccc1 observed=0.148
molecule="CC1CC/C=C\\[C@H]2OC34C=CCN(C(C)(C)C)C(=O)[C@H]3N(C(CO)C(C)C)C(=O)[C@@H]4C2C(=O)O1 (stereo partly specified)" observed=-0.554
molecule="CS(=O)(=O)CCOC(=O)C1=CC(CCCO)=CC(C2CC2)N(Cc2cccc(OC(F)(F)F)c2)C=C1C(=O)OCCS(C)(=O)=O (stereo unspecified)" observed=0.478
molecule=COCCOC(=O)N1C(=O)[C@@]2(c3ccccc31)[C@H](c1ccccc1OCCO)N1[C@H](c3ccccc3)[C@H](c3ccccc3)OC(=O)[C@H]1[C@@H]2C(N)=O observed=0.208
molecule="CC(C)CCC[C@@H](C)[C@H]1CC[C@@]2(C)C3=C(CC[C@]12C)[C@@]1(C)CC[C@H](OC(=O)c2ccccc2)C(C)(C)C1CC3 (stereo partly specified)" observed=-0.647
